# credit: the supplement of paper PMC10567573

B1: PRPH (parent)
chain: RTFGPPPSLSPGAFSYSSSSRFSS

variants of: B1; experiment: protein stability index of a GFP-peptide fusion (GPS, HEK-293T) (PSI 1-6); higher = more stable; conditions: c terminus: a fixed tail appended;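 note: lentivirally expressed fusions sorted by FACS into six bins by GFP to DsRed ratio, PSI derived from sequencing read proportions per bin multiplied by bin number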
assay.endpoint: protein stability index
Hey, just send me the number, nothing else.

RTTGPPPSLSPGAFSYSSSSRFSS [F3T] = 3.54
RTFGPPPSLSPGAFYYSSSSRFSS [S15Y] = 2.56
RTFGPPPSLDPGAFSYSSSSRFSS [S10D] = 2.76
RTFGPPPSLSPGAFSYSSVSRFSS [S19V] = 3.63
RTFGPPPSLSPGAFSYSSSARFSS [S20A] = 3.71

Lookup: Please list protein stability index recorded for the variant RTFGPPPSLSPGAFVYSSSSRFSS [S15V]
Found: 2.74

Lookup: Please list protein stability index recorded for the variant HTFGPPPSLSPGAFSYSSSSRFSS [R1H]
Found: 3.24

Lookup: Please list protein stability index recorded for the variant RTNGPPPSLSPGAFSYSSSSRFSS [F3N]
Found: 3.38

Lookup: Please list protein stability index recorded for the variant RTFGPPPSLSPGAFSYSRSSRFSS [S18R]
Found: 3.38

Lookup: Please list protein stability index recorded for the variant RTFGPPPSLSFGAFSYSSSSRFSS [P11F]
Found: 2.11
